Quick reference for zone of inhibition at 105 µg/disc among some compounds
- System: Pseudomonas aeruginosa
- Protocol Description: Antimicrobial activity against Pseudomonas aeruginosa ATCC 9027 at 105 ug/disk after 24 hr by disk diffusion method
- Type: functional
- Particulars: ATCC 9027, 24 h, read-out: IZ
Unit mm implied. Number only.

1) COc1ccc(C(=O)CC(Sc2ccccc2)c2ccco2)cc1 (stereo not given)	13
2) COc1ccccc1C(=O)CC(Sc1ccccc1)c1ccco1 (stereo not given)	15
3) O=C(CC(Sc1ccccc1)c1ccco1)c1ccccc1Cl (stereo not given)	14
4) O=C(CC(Sc1ccccc1)c1ccco1)c1cccc(Br)c1 (stereo not given)	16
5) O=C(CC(Sc1ccccc1)c1ccco1)c1ccc(Cl)cc1 (stereo not given)	15

Shifting focus to the compound that follows.
**Q:** What is its zone of inhibition at 105 µg/disc for Pseudomonas aeruginosa? Entry: O=C(CC(Sc1ccccc1)c1ccco1)c1ccccc1Br (stereo not given)
**A:** 15

###

Quick reference for zone of inhibition at 105 µg/disc among some molecules
- Test system: Staphylococcus aureus
- Protocol Description: Antimicrobial activity against Staphylococcus aureus ATCC 29213 at 105 ug/disc after 24 hr by disk diffusion method
- Type: functional
- Particulars: ATCC 29213, 24 h, read-out: IZ

1. O=C(CC(Sc1ccccc1)c1ccco1)c1ccccc1Cl (stereo unspecified)	18 mm
2. O=C(CC(Sc1ccccc1)c1ccco1)c1ccccc1O (stereo unspecified)	16 mm
3. O=C(CC(Sc1ccccc1)c1ccco1)c1cccc(Br)c1 (stereo unspecified)	16 mm
4. COc1ccccc1C(=O)CC(Sc1ccccc1)c1ccco1 (stereo unspecified)	17 mm
5. O=C(CC(Sc1ccccc1)c1ccco1)c1cccc(Cl)c1 (stereo unspecified)	16 mm

Shifting focus to the molecule that follows.
**Q:** Requested read-out: zone of inhibition at 105 µg/disc. Entry: O=C(CC(Sc1ccccc1)c1ccco1)c1ccccc1Br (stereo unspecified)
**A:** 17 mm

###

- Tested on: Cyberlindnera jadinii
- Protocol Description: Antimicrobial activity against Cyberlindnera jadinii KUEN 1031 at 105 ug/disc after 48 hr by disk diffusion method
- Assay type: functional
- Particulars: Williopsis jadinii, KUEN 1031, 48 h; read-out: IZ
Quick reference for zone of inhibition at 105 µg/disc among some compounds
Hi, when you answer, please include the unit after the number. Thanks!

1. O=C(CC(Sc1ccccc1)c1ccco1)c1ccc(Br)cc1 (stereo unspecified)	13 mm
2. O=C(CC(Sc1ccccc1)c1ccco1)c1ccccc1Br (stereo unspecified)	15 mm

**Q:** Requested read-out: zone of inhibition at 105 µg/disc. Entry: O=C(CC(Sc1ccccc1)c1ccco1)c1cccc(Cl)c1 (stereo unspecified)
**A:** 15 mm

###

Quick reference for zone of inhibition at 105 µg/disc among some molecules
- Tested on: Bacillus cereus
- Protocol Description: Antimicrobial activity against Bacillus cereus DSM 4312 at 105 ug/disk after 24 hr by disk diffusion method
- Format: functional
- Particulars: DSM 4312, 24 h, read-out: IZ
Unit mm implied. Number only.

**Q:** Requested read-out: zone of inhibition at 105 µg/disc. Entry: O=C(CC(Sc1ccccc1)c1ccco1)c1cccc(Br)c1 (configuration not stated)
**A:** 13

**Q:** Requested read-out: zone of inhibition at 105 µg/disc. Entry: O=C(CC(Sc1ccccc1)c1ccco1)c1ccccc1Br (configuration not stated)
**A:** 12

**Q:** Requested read-out: zone of inhibition at 105 µg/disc. Entry: O=C(CC(Sc1ccccc1)c1ccco1)c1ccccc1O (configuration not stated)
**A:** 15

**Q:** Requested read-out: zone of inhibition at 105 µg/disc. Entry: O=C(CC(Sc1ccccc1)c1ccco1)c1cccc(Cl)c1 (configuration not stated)
**A:** 11

**Q:** Requested read-out: zone of inhibition at 105 µg/disc. Entry: COc1ccccc1C(=O)CC(Sc1ccccc1)c1ccco1 (configuration not stated)
**A:** 10

**Q:** Requested read-out: zone of inhibition at 105 µg/disc. Entry: O=C(CC(Sc1ccccc1)c1ccco1)c1ccccc1Cl (configuration not stated)
**A:** 11

**Q:** Requested read-out: zone of inhibition at 105 µg/disc. Entry: O=C(CC(Sc1ccccc1)c1ccco1)c1ccc(Cl)cc1 (configuration not stated)
**A:** 10

###

- Tested on: Pseudomonas aeruginosa
- Protocol Description: Antimicrobial activity against Pseudomonas aeruginosa ATCC 9027 at 105 ug/disk after 24 hr by disk diffusion method
- Assay type: functional
- Particulars: ATCC 9027, 24 h, read-out: IZ
Quick reference for zone of inhibition at 105 µg/disc among some molecules
Unit mm implied. Number only.

Worked set:
1. O=C(CC(Sc1ccccc1)c1ccco1)c1ccc(O)cc1 (centres undefined)	14
2. O=C(CC(Sc1ccccc1)c1ccco1)c1ccc(Br)cc1 (centres undefined)	15
3. O=C(CC(Sc1ccccc1)c1ccco1)c1cccc(Cl)c1 (centres undefined)	15

Shifting focus to the molecule that follows.
**Q:** Requested read-out: zone of inhibition at 105 µg/disc. Entry: O=C(CC(Sc1ccccc1)c1ccco1)c1ccccc1O (centres undefined)
**A:** 14

###

- Tested on: Cyberlindnera jadinii
- Protocol Description: Antimicrobial activity against Cyberlindnera jadinii KUEN 1031 at 105 ug/disc after 48 hr by disk diffusion method
- Assay type: functional
- Particulars: Williopsis jadinii, KUEN 1031, 48 h; read-out: IZ
Quick reference for zone of inhibition at 105 µg/disc among some compounds
Unit mm implied. Number only.

Worked set:
1) O=C(CC(Sc1ccccc1)c1ccco1)c1ccccc1O (stereo not drawn)	15
2) COc1ccccc1C(=O)CC(Sc1ccccc1)c1ccco1 (stereo not drawn)	14
3) O=C(CC(Sc1ccccc1)c1ccco1)c1cccc(Br)c1 (stereo not drawn)	14
4) COc1cccc(C(=O)CC(Sc2ccccc2)c2ccco2)c1 (stereo not drawn)	13
5) O=C(CC(Sc1ccccc1)c1ccco1)c1ccc(O)cc1 (stereo not drawn)	13

**Q:** Requested read-out: zone of inhibition at 105 µg/disc. Entry: COc1ccc(C(=O)CC(Sc2ccccc2)c2ccco2)cc1 (stereo not drawn)
**A:** 12

**Q:** Requested read-out: zone of inhibition at 105 µg/disc. Entry: O=C(CC(Sc1ccccc1)c1ccco1)c1ccc(Cl)cc1 (stereo not drawn)
**A:** 14

**Q:** Requested read-out: zone of inhibition at 105 µg/disc. Entry: O=C(CC(Sc1ccccc1)c1ccco1)c1ccccc1Cl (stereo not drawn)
**A:** 13
